# ASSAY NAME: amyloid nucleation score (Sup35N fusion, yeast selection) (log enrichment); library NNK3; higher = more nucleation; inactive = no reads after selection;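 also: zero at mode of non-aggregating sequences after 7 days selection at 30°C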
QUANTITY MEASURED: amyloid nucleation score

{"columns": ["RESIDUE CODES", "TEST RESULT"],
 "data": [
  ["RHDCIYRKV", "inactive"],
  ["GAPGLMFVFLKKSVFLYSYL", "inactive"],
  ["GFGFRAVMPMLYFEYYGQR", 0.793],
  ["DWLMPIFQVNIEMLWLSWLW", "inactive"],
  ["QNCVTDMSKNLGIVREFSCS", "inactive"],
  ["FPARLYGYMFLKNSTLRFSR", "inactive"],
  ["VVMSWYLVVTI", 0.883],
  ["RLATYALSFPSS", "inactive"]
]}

###

# ASSAY NAME: amyloid nucleation score (Sup35N fusion, yeast selection) (log enrichment); library NNK1; higher = more nucleation; inactive = no reads after selection
QUANTITY MEASURED: amyloid nucleation score

{"columns": ["RESIDUE CODES", "QUANTITY MEASURED", "TEST RESULT"],
 "data": [
  ["VLMLRSGWPQRRPHFG", "amyloid nucleation score", -0.301],
  ["EIARHSFF", "amyloid nucleation score", "inactive"],
  ["CWCSANALMCRGKLSAWNRH", "amyloid nucleation score", "inactive"]
]}

###

# ASSAY NAME: amyloid nucleation score (Sup35N fusion, yeast selection) (log enrichment); library NNK3; higher = more nucleation; inactive = no reads after selection

{"columns": ["SUBSTANCE", "amyloid nucleation score"],
 "data": [
  ["TLWMQILDAKYRSCSLRLRR", "inactive"],
  ["LVLMCIIARIAVVYKR", "inactive"],
  ["ANCSWWSWESMNCCYIGWIF", 1.54],
  ["HMLSNFGARVREYIAMFGRL", "inactive"],
  ["SSNLDTTVCFPVCSAPELEG", "inactive"],
  ["IRTNYRRGKEAGVSGADSCS", "inactive"],
  ["CPSWCYFNRGDV", 1.39],
  ["DCFSGIGCSRRKT", "inactive"],
  ["FALTIGSFSRMNHTVPNPFE", "inactive"],
  ["GLCSMLASFRTQYSS", "inactive"],
  ["CTYIVHATVEPVYDNDLLKW", "inactive"],
  ["ESWVFRTRDMPGEFTSSVCM", "inactive"],
  ["AYADHHYRAGLRFPAGEVYW", "inactive"],
  ["RDYKAHYLRCLYLWTMSLP", "inactive"],
  ["HEYKCKL", "inactive"],
  ["LSDDMPKV", "inactive"],
  ["EAYDGKSSICSRCS", "inactive"],
  ["AFAFYSD", "inactive"],
  ["CCYATSLYINDDATIIVNLM", 2.74],
  ["TDFIIRKSYQLLEFYFY", "inactive"],
  ["TFLLLYGIMDSNVPTVRHAL", 0.846],
  ["SVYCCIDKLLHSAKSRLFMM", "inactive"],
  ["VITTVTTWGLRAGDVMRRTR", 1.11],
  ["TFWMPD", -0.55],
  ["CWIAMCGVVFNDLRMS", 2.81],
  ["PIIHGCDDLRDFFIARICIS", "inactive"],
  ["MIWFVLL", 2.17],
  ["TRSFVRSGAWNSLEGW", 1.16],
  ["YFSSLNSNFWGVVRRRLLYN", "inactive"],
  ["IYGVSESVYWIVWANIGVLQ", "inactive"],
  ["FTVYCF", "inactive"],
  ["QVFLSKVCMLFDVVARVVKR", "inactive"],
  ["FKSVIESTLMIETDY", "inactive"],
  ["VTLVNKKGWSFATAITMWKR", "inactive"],
  ["KRVLEGRFITVSM", "inactive"],
  ["HYAVQYTNRYKGFKLHKQHN", "inactive"],
  ["RDYILKT", "inactive"],
  ["FLNTLFYHMGT", "inactive"],
  ["IFNALCYTWESRFLRTEVVS", "inactive"],
  ["DSIRLLLALPH", "inactive"],
  ["GTISIGSIRAVLLAFPFYAL", 1.08],
  ["NRNRYMFLITITHY", "inactive"],
  ["RRYDNYRYSHRMFFKRFQAV", "inactive"],
  ["RTLVPGTHR", "inactive"],
  ["TYPRLNVHLLPLDFILYPH", "inactive"],
  ["DPYFVG", "inactive"],
  ["SRRVISEHSMEGNTID", "inactive"],
  ["FNFFTKVASDHRNI", "inactive"],
  ["DVLLVIKVDYQVGLARVSRL", "inactive"],
  ["LSGFSMIFREDNSVVFV", "inactive"],
  ["SFNVSRWPRKWISLNCLKIS", "inactive"],
  ["RLSLFRGKCRVYYYTGSIQV", "inactive"],
  ["FYYWVGFCAGKAEDFRDLLC", "inactive"],
  ["VQWAEVAEMKGWGVANAWW", "inactive"],
  ["YLYRFLPVQTRPLMHATSYI", "inactive"],
  ["LYAINLWLAVFYRLQQFMDV", "inactive"],
  ["SDTSSCCYTCVYISYVDHFF", 2.41]
]}

src = the supplement of paper PMC12042874
